Value source: patent US20250243289A1

# experimentalTarget: T1, human TL1A, endogenous in human whole blood (human, UniProt O95150 72-251, limits assumed)
# T1 sequence (looked up): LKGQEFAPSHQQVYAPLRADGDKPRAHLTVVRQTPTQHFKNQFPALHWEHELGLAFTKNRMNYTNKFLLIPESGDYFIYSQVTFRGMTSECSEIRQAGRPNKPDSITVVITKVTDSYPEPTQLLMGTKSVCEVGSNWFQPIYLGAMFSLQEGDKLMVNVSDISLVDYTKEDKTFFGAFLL
# measurementDescription: cell-based or functional assay
Reported % Inhibition at 1 nM Ig (interferon gamma release in human blood) values are given for each entry in this list.
readout: % Inhibition at 1 nM Ig (interferon gamma release in human blood)

binder	recordedMeasurement
A147 (antibody, human IgG1, V domains shown) VH: QVQLVQSGAEVKKPGASVKVSCKASGFDIQDTYMHWVKQRPGQGLEWMGRIEPASGHIKYDPKFQGRVTMTRDTSTSTVYMELSSLRSEDTAVYYCARSGGLPDWWGQGTTVTVSS VL: EIVLTQSPGTLSLSPGERATLSCRASSSVSYMYWYQQKPGQAPRPLIYATSNLASGIPDRFSGSGSGTDFTLTISRLEPEDFAVYYCQQWEGNPRTFGGGTKLEIK	51.3%
A220 (antibody, human IgG1, V domains shown) VH: QVQLVQSGAEVKKPGASVKVSCKASGFDIQDTYMHWVKQRPGQGLEWMGRIDPASGHTKYDPKFQVRVTMTRDTSTSTAYLELSSLRSEDTAVYYCARSGGLPDVWGQGTTVTVSS VL: EIVLTQSPGTLSLSPGERATLSCRASSSVSYMYWYQQKPGQAPRPWIYATSNLASGIPDRFSGSGSGTDFTLTISRLEPEDFAVYYCQQWEGNPRTFGGGTKLEIK	36.9%
A219 (antibody, V domains shown) VH: QVQLVQSGAEVKKPGASVKVSCKASGFDIQDTYMHWVKQRPGQGLEWMGRIDPASGHTKYDPKFQVRVTITRDTSTSTVYLELSSLRSEDTAVYYCARSGGLPDVWGQGTTVTVSS VL: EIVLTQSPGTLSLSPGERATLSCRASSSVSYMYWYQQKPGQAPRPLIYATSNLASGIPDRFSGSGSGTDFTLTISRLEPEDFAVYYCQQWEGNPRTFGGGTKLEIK	59.8%
